Hello, the source for this data is the supplement of paper PMC10567573, in case you need it.

B1: WSB1 (parent)
chain: FSHDGLHVASLADDKMVRFWRIDE

variants of: B1; assay: protein stability index of a GFP-peptide fusion (GPS, HEK-293T) (PSI 1-6); higher = more stable; details: c terminus: a fixed tail appended;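 note: lentivirally expressed fusions sorted by FACS into six bins by GFP to DsRed ratio, PSI derived from sequencing read proportions per bin multiplied by bin number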
Record 1 (yes) whenever protein stability index is at 2 or higher; record 0 (no) when lower.

Use the examples below as a reference point.
| mut | group |
| --- | --- |
| F19K | 1 (yes) |
| F19M | 1 (yes) |
| S10K | 1 (yes) |
| K15A | 1 (yes) |
| L11Q | 0 (no) |
| F19L | 1 (yes) |

### Prompt Determine whether this variant has protein stability index no lower than 2: `H3E`
### Response 0 (no)

### Prompt Determine whether this variant has protein stability index no lower than 2: `V17Q`
### Response 1 (yes)

### Prompt Determine whether this variant has protein stability index no lower than 2: `H3D`
### Response 1 (yes)

### Prompt Determine whether this variant has protein stability index no lower than 2: `H3V`
### Response 0 (no)

### Prompt Determine whether this variant has protein stability index no lower than 2: `F1K`
### Response 1 (yes)
